# Test system: Caspase-4 (Homo sapiens)
# Sequence (P49662 81-270 limits assumed): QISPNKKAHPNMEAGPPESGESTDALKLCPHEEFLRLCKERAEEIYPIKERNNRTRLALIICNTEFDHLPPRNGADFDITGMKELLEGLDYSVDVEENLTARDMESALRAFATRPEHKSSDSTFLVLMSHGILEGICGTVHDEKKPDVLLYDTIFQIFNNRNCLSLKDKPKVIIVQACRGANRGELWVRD
# Sequence (P49662 290-377 limits assumed): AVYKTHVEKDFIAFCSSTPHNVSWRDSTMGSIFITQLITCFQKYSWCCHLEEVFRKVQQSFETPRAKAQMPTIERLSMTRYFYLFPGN
# Method description: Affinity Biochemical interaction: (enzymatic assay (fluorogenic substrate cleavage)) EUB0002201a CASP4
Residues, ends and D or L forms follow the SMILES beside them.
Readout label: pIC50
Give bare numbers, as −log10 of the molar value.

So for CC(=O)N[C@@H](CC(C)C)C(=O)N[C@@H](CCC(=O)O)C(=O)N[C@H](C(=O)N[C@H](C=O)CC(=O)O)C(C)C (Ac-LEVD-aldehyde) , the logged pIC50 turned out to be 7.08

----------
# Test system: Arginase-2, mitochondrial (Homo sapiens, UniProt P78540)
# Sequence (P78540 whole entry): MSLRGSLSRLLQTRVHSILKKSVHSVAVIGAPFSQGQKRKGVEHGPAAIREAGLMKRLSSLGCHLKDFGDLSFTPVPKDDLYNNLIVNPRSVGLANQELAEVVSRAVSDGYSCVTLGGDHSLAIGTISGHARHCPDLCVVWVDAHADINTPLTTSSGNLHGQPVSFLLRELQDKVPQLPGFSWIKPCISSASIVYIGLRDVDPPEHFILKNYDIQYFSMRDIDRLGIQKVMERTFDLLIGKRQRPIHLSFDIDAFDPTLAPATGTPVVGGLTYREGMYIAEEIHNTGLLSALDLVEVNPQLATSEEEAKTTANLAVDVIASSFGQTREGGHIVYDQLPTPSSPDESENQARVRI
# Method description: Affinity Biochemical interaction: (competitive binding assay with radiolabelled [guanido-14C][…] as substrate) EUB0002484aCl ARG2
Readout label: pKi
Answers are plain numbers, as −log10 of the molar value.

Reported pKi ( N[C@@H](CCCCB(O)O)C(=O)O ) = 6.60
